Tgt: LY6A (Ly6a, C57BL/6J mouse) (mouse (C57BL/6J)) (UniProt P05533)
Test: AAV library bound to Ly6a-transfected HEK293T cells, NGS
# label = bin(measured fold enrichment (log2)), where bins are bucket 1 (below -0.3 log2), bucket 2 (-0.3 log2 to below 2 log2), bucket 3 (2 log2 or more)

# example entries with known answers
>>> qualitative_label("AAV9 K449R 7-mer variant WRQGYAS")
"bucket 2"
>>> qualitative_label("AAV9 K449R 7-mer variant TRFGAST")
"bucket 2"

(Q) Which bin should I file AAV9 K449R 7-mer variant NMERPFR under?
(A) bucket 3

(Q) Which bin should I file AAV9 K449R 7-mer variant MERYGSS under?
(A) bucket 1

(Q) Which bin should I file AAV9 K449R 7-mer variant LRMGASS under?
(A) bucket 2

(Q) Which bin should I file AAV9 K449R 7-mer variant DKAWGST under?
(A) bucket 2

---

Entries and their measured fold enrichment (log2) follow.
Tgt: LY6A (Ly6a, C57BL/6J mouse) (mouse (C57BL/6J)) (UniProt P05533)
Test: AAV library bound to Ly6a-transfected HEK293T cells, NGS
# number only, unit log2 dropped from output

In the examples that follow, each entry is paired with its recorded fold enrichment (log2).
>>> reported_value("AAV9 K449R 7-mer variant NGYKGST")
1.24
>>> reported_value("AAV9 K449R 7-mer variant PPSFKNV")
3.69

(Q) What does the data say about its fold enrichment (log2)? Entry: AAV9 K449R 7-mer variant EDHRYSS
(A) 0.17

(Q) What does the data say about its fold enrichment (log2)? Entry: AAV9 K449R 7-mer variant ESSKPFR
(A) 3.15

(Q) What does the data say about its fold enrichment (log2)? Entry: AAV9 K449R 7-mer variant LSMGYST
(A) -3.91

(Q) What does the data say about its fold enrichment (log2)? Entry: AAV9 K449R 7-mer variant DTKWSSS
(A) 0.53

(Q) What does the data say about its fold enrichment (log2)? Entry: AAV9 K449R 7-mer variant FLPGYSS
(A) -2.29

---

Tgt: LY6C1 (Ly6c1, C57BL/6J mouse, splice variant 1) (mouse (C57BL/6J)) (UniProt P0CW02)
Test: AAV library bound to Ly6c1-transfected HEK293T cells, NGS
Note to self: values exactly at 6 log2 are yes. So fold enrichment (log2) at or above 6 log2 is yes, below is no.

>>> qualitative_label("AAV9 K449R 7-mer variant TRNGYST")
"no"
>>> qualitative_label("AAV9 K449R 7-mer variant C28 (KSVGSVY)")
"no"
>>> qualitative_label("AAV9 K449R 7-mer variant C3 (WGTPPRG)")
"yes"

(Q) Is fold enrichment (log2) for AAV9 K449R 7-mer variant C5 (ELYKLPT) at or above 6 log2?
(A) no

---

Tgt: LY6C1 (Ly6c1, C57BL/6J mouse, splice variant 1) (mouse (C57BL/6J)) (UniProt P0CW02)
Test: AAV library bound to Ly6c1-transfected HEK293T cells, NGS
Note to self: values exactly at 3 log2 are Condition met. So fold enrichment (log2) at or above 3 log2 is Condition met, below is Condition not met.

# example entries with known answers
>>> qualitative_label("AAV9 K449R 7-mer variant QHFGQSS")
"Condition met"
>>> qualitative_label("AAV9 K449R 7-mer variant TYKSGSS")
"Condition met"

Query substance follows.
(Q) Is fold enrichment (log2) for AAV9 K449R 7-mer variant SSTGYSS at or above 3 log2?
(A) Condition met
